# assayed-target: cAMP PDE
# test-summary: Phosphodiesterase (PDE) inhibitory activity, cAMP substrate
# settings: 0.14 μM 14C-labeled cAMP, pH 8.0, 30° C., 20 minutes, crude enzyme from rat brains; read-out: I50 cAMP PDE
metric-name: pIC50
Quick note: pIC50 values are minus log10 of concentrations in mol/L.

Lab note: compound O=C(O)CC1(C(=O)O)C=C2OC(n3cnc4c(=O)[nH]cnc43)C(O)C2O1 (stereo not drawn) tested on cAMP PDE; recorded pIC50 was 6.85

Lab note: compound O=C(O)[C@H](O)C1(C(=O)O)C=C2OC(n3cnc4c(NCc5ccccc5)ncnc43)[C@H](O)C2O1 (stereo partly drawn) tested on cAMP PDE; recorded pIC50 was 5.13

Lab note: compound Nc1ncnc2c1ncn2C1OC2=CC(C(=O)O)([C@@H](O)C(=O)O)OC2[C@@H]1I (stereo partly drawn) [Compound No. 249, 2'-deoxy-2'(S)-iodogriseolic acid] tested on cAMP PDE; recorded pIC50 was 6.36

====

# assayed-target: cAMP PDE
# test-summary: Phosphodiesterase (PDE) inhibitory activity, cAMP substrate
# settings: 0.14 μM 14C-labeled cAMP, pH 8.0, 30° C., 20 minutes, crude enzyme from rat brains; read-out: I50 cAMP PDE
metric-name: IC50 (µM)
The figure you give is taken to be in µM; do not add the unit.

Previously resolved entries follow.
| compound | assayed-target | IC50 / µM |
| --- | --- | --- |
| O=C(Nc1ncnc2c1ncn2C1OC2=CC(C(=O)O)([C@@H](OC(=O)c3ccccc3)C(=O)O)OC2[C@H]1O)c1ccccc1 (some centres unmarked) | cAMP PDE | 33 |
| CC(=O)O[C@@H](C(=O)O)C1(C(=O)O)C=C2OC(n3cnc4c(=N)n(Cc5ccccc5)cnc43)[C@H](O)C2O1 (some centres unmarked) | cAMP PDE | 1.8 |
| [N-]=[N+]=N[C@H]1C2OC(C(=O)O)([C@@H](O)C(=O)O)C=C2OC1n1cnc2c(N)ncnc21 (stereo partly drawn) [Compound No. 247, 2'(S)-azido-2'-deoxygriseolic acid] | cAMP PDE | 0.45 |

Lab note: compound Nc1ncnc2c1ncn2C1OC2=CC(C(=O)O)([C@H](O)C(=O)O)OC2[C@H]1O (stereo partly drawn) [Compound No. 140, 7'-deoxy-7'(S)-hydroxygriseolic acid] tested on cAMP PDE; recorded IC50 was 0.76

Lab note: compound Nc1ncnc2c1ncn2C1OC2=CC(C(=O)O)([C@@H](O)C(=O)O)OC2[C@@H]1Br (stereo partly drawn) [Compound No. 143, 2'(S)-bromo-2'-deoxygriseolic acid] tested on cAMP PDE; recorded IC50 was 0.09

Lab note: compound N=c1c2ncn(C3OC4=CC(C(=O)O)([C@@H](O)C(=O)O)OC4[C@H]3O)c2ncn1Cc1ccccc1 (some centres unmarked) tested on cAMP PDE; recorded IC50 was 0.6

Lab note: compound Nc1ncnc2c1ncn2C1OC2=CC(C(=O)O)([C@@H](OC(=O)c3ccccc3)C(=O)O)OC2[C@H]1OC(=O)c1ccccc1 (some centres unmarked) tested on cAMP PDE; recorded IC50 was 3.2

Lab note: compound Nc1ncnc2c1ncn2C1OC2=CC(C(=O)O)([C@@H](O)C(=O)O)OC2[C@H]1OC(=O)c1ccccc1 (some centres unmarked) tested on cAMP PDE; recorded IC50 was 6.8
